Reference source: the supplement of paper PMC6288085

compounds and their reported food intake
- Tested on: Caenorhabditis elegans N2
- Assay notes: food intake (mean delta OD600 / animal over 72 h) with 50 uM loxapine co-treatment (OD600 units per animal); higher = more food eaten (less suppression of loxapine-induced hyperphagia)
- Condition summary: first compound 33 µM, loxapine concentration 50 µM
Where a name gives a salt, the structure may show the parent alone.
Returns: the value as a bare number; no unit string appended.

Examples with answers:
# Compound, food intake
measured = [
    ("CC=CC(=O)N(CC)c1ccccc1C [crotamiton] + CN1CCN(C2=Nc3ccccc3Oc3ccc(Cl)cc32)CC1", 0.0223),
    ("N[C@@H]1CCCCN(c2c(F)cc3c(=O)c(C(=O)O)cn(C4CC4)c3c2Cl)C1 [besifloxacin (hydrochloride)] + CN1CCN(C2=Nc3ccccc3Oc3ccc(Cl)cc32)CC1", 0.0227),
]

Read the entry Cn1c(=O)c2nc[nH]c2n(C)c1=O [theophylline] + CN1CCN(C2=Nc3ccccc3Oc3ccc(Cl)cc32)CC1 and write its reported food intake.
0.00971
